Assay: differential killing of epithelial or mesenchymal cells, primary screen, imaging, PC-3E GFP, TEM4-18 mCherry, co-culture (AID 1345086);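 also: cells exposed to compound for 72 h before imaging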
Settings: imaging cell counts, measured here: mesenchymal TEM4-18 mCherry cell survival, at 1 µM
Readout: normalised cell number

[[record]]
molecule = "CC1(C)O[C@@H]2CC3C4C[C@H](F)C5=CC(=O)CC[C@]5(C)C4[C@@H](O)C[C@]3(C)[C@]2(C(=O)CO)O1 (stereo not given in full)"
readout = "normalised cell number"
assay_result = 1.42

[[record]]
molecule = "CC(C)(c1ccc(O)cc1)c1ccc(O)cc1"
readout = "normalised cell number"
assay_result = 1.09

[[record]]
molecule = "CC(=O)C1=C(O)C=C2Oc3c(C(N)=O)c(O)cc(O)c3[C@@]2(C)C1=O"
readout = "normalised cell number"
assay_result = 1.04

[[record]]
molecule = "S=c1ccss1"
readout = "normalised cell number"
assay_result = 1.2

[[record]]
molecule = "O=c1cc(-c2ccccc2O)oc2cc(O)ccc12"
readout = "normalised cell number"
assay_result = 0.97

[[record]]
molecule = "CCSC(SCC)[C@@H]1NC(=O)O[C@H]1[C@H](O)[C@H](O)CO"
readout = "normalised cell number"
assay_result = 1.12

[[record]]
molecule = "CC/C=C\\[C@H](O)[C@H](O)C1=C(C)C(=O)[C@]2(O1)C(=O)N[C@@](OC)(C(=O)c1ccccc1)[C@@H]2O"
readout = "normalised cell number"
assay_result = 0.95

[[record]]
molecule = "NC(=O)c1cc(F)c(F)cc1NC1CC1"
readout = "normalised cell number"
assay_result = 1.16

[[record]]
molecule = "O=C(O)c1ccccc1Nc1ccccc1"
readout = "normalised cell number"
assay_result = 1.05

[[record]]
molecule = "CC(C)=C1CC[C@]2(C)[C@@H](O)CC[C@H]3[C@](C)(Cc4c[nH]c5ccccc45)[C@@H](C)CC[C@]132"
readout = "normalised cell number"
assay_result = 0.94

[[record]]
molecule = "CC(C)CCCC(C)C1CCC2C3=CC[C@H]4C[C@@H](O)CC[C@]4(C)C3CC[C@@]21C (stereo not given in full)"
readout = "normalised cell number"
assay_result = 1.08

[[record]]
molecule = "C#C[C@]1(OC(C)=O)CCC2C3CCC4=C/C(=N/O)CCC4C3CC[C@@]21CC (stereo not given in full)"
readout = "normalised cell number"
assay_result = 0.76

[[record]]
molecule = "CCCCCCCCC[C@H]1O[C@]2(O)CC[C@H](O)[C@]2(O)[C@@H]1O"
readout = "normalised cell number"
assay_result = 0.91

[[record]]
molecule = "N[C@@H]1[C@@H](O)[C@H](O)[C@@H](CO)O[C@H]1O"
readout = "normalised cell number"
assay_result = 1.12

[[record]]
molecule = "CC(C)[C@@H]1CC[C@@H](C)C[C@H]1O"
readout = "normalised cell number"
assay_result = 0.79

[[record]]
molecule = "CC(=O)O[C@H]1CC2CCC3C(CC[C@@]4(C)C3C[C@H]([N+]3(C)CCCCC3)[C@@H]4OC(C)=O)[C@@]2(C)C[C@@H]1[N+]1(C)CCCCC1 (stereo not given in full)"
readout = "normalised cell number"
assay_result = 0.94

[[record]]
molecule = "CC(=O)OCC1O[C@H](Sc2ccc(C)cc2)[C@@H]2[C@@H](OC(=O)N2C(C)=O)C1OC(C)=O (stereo not given in full)"
readout = "normalised cell number"
assay_result = 1.05

[[record]]
molecule = "C=C1OC(=O)[C@]2([C@H](C)C=C[C@H](O)[C@@H]2O)[C@@H]1O"
readout = "normalised cell number"
assay_result = 0.99

[[record]]
molecule = "O=C1O[C@H](C(O)CO)C(O)=C1O (stereo not given in full)"
readout = "normalised cell number"
assay_result = 1.26

[[record]]
molecule = "Oc1ccc2ccccc2c1"
readout = "normalised cell number"
assay_result = 0.79

